Target: Translocator protein (Rattus norvegicus)
Sequence (P16257 whole entry, looked up): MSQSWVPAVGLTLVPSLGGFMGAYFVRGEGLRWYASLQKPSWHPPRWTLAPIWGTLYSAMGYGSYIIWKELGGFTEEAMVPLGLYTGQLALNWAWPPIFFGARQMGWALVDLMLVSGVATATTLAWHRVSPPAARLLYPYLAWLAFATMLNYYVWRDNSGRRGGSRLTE
Experiment: Displacement of [3H]-PK 11195 from peripheral-type benzodiazepine receptor of rat cerebral cortex membranes
Assay type: cell membranes, Membrane
Category | rule: reported IC50 within range, see bin A (below 6 nM), bin B (6 nM to below 200 nM), bin C (200 nM or more)

Take a look at these entries with their results.
[[record]]
compoundstructurestring = "CCCNC(=O)Cc1c(-c2ccc(Cl)cc2)nc2ccccn12"
group = "bin C"

[[record]]
compoundstructurestring = "CCCN(CCC)C(=O)Cc1c(-c2ccccc2)nc2c(C)cc(Br)cn12"
group = "bin A"

[[record]]
compoundstructurestring = "CCCN(CCC)C(=O)Cc1c(-c2ccc(Cl)cc2)nc2c(N)cccn12"
group = "bin B"

[[record]]
compoundstructurestring = "CCCCNC(=O)Cc1c(-c2ccccc2)nc2c(Cl)cc(Cl)cn12"
group = "bin C"

[[record]]
compoundstructurestring = "CCCN(CCC)C(=O)Cc1c(-c2ccccc2)nc2c(Cl)cccn12"
group = "bin B"

[[record]]
compoundstructurestring = "CCCN(CCC)C(=O)Cc1c(-c2ccc(Cl)cc2)nc2c(OC)cccn12"
group = "bin B"

[[record]]
compoundstructurestring = "CCCN(CCC)C(=O)Cc1c(-c2ccc(Cl)cc2)nc2c(Cl)cccn12"
group = "bin A"

[[record]]
compoundstructurestring = "CCCN(CCC)C(=O)Cc1c(-c2ccc(Cl)cc2)nc2c(C)cccn12"
group = "bin A"

[[record]]
compoundstructurestring = "CCCCCCN(CCCCCC)C(=O)Cc1c(-c2ccc(Cl)cc2)nc2ccccn12"
group = "bin B"


Okay, now this compound:
Bin? CCCN(CCC)C(=O)Cc1c(-c2ccccc2)nc2ccc(C(N)=O)cn12
bin C
